B1: TPR t1 (parent)
chain: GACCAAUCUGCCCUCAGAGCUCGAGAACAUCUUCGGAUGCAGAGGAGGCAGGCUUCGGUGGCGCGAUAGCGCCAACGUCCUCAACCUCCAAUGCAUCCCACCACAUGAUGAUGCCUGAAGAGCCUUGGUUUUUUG

Variants of: B1
Assay: polymerase ribozyme fitness, log enrichment relative to wild type (log ratio); higher = more active; in vitro selection for triplet polymerase activity
Measured Parameter: polymerase ribozyme fitness (log ratio)
Format: numeric value only, no unit, no commentary.

Use the examples below as a reference point.
G71C A83U G113U    -4.07
A6G U87G A121C    1.92
U38C C53U U116A A121G    0.589
G48U G57C U96A    -1.49
A27U C82G U106A G120C    -1.62

Report polymerase ribozyme fitness (log ratio) for C49U G77U C123G please.
0.718

Report polymerase ribozyme fitness (log ratio) for C56U A90G U125A please.
-0.318

Report polymerase ribozyme fitness (log ratio) for C34U U112A please.
-2.99

Report polymerase ribozyme fitness (log ratio) for C3A G52U C123A please.
-0.759

Report polymerase ribozyme fitness (log ratio) for C64U G113A please.
-1.32

Report polymerase ribozyme fitness (log ratio) for C3A G48U G71C C101A G127A please.
-3.71

Report polymerase ribozyme fitness (log ratio) for C13A A46U please.
-3.23

Report polymerase ribozyme fitness (log ratio) for C40U G44U C49U C53A A84C C86G G113C U125C please.
-3.99

Report polymerase ribozyme fitness (log ratio) for C13U C76A please.
-0.633

Report polymerase ribozyme fitness (log ratio) for C70U A90G U106A please.
0.297

Report polymerase ribozyme fitness (log ratio) for G71A C123U please.
0.153

Report polymerase ribozyme fitness (log ratio) for C4A C56G C102U please.
-4

Reference for the values: the RNAGym collection of RNA variant scans (doi:10.1073/pnas.2313332121)
